These data points were gathered from PubChem BioAssay (NCI).

# System: RPMI-8226 leukemia
# test details: NCI tumour cell line growth inhibition, 48 h; in the data active means GI50 below about 0.43 µM; inactive means the rest
The reply should be one of these categories: active, inactive

Solved entries (count: 2):
How did this test come out for COc1ccc2nc3cc(Cl)ccc3c(NCCN)c2c1 ?
inactive

How did this test come out for C=C(C)C1CCC2(C(=O)O)CCC3(C)C(CCC4C5(C)CCC(OC(=O)NCc6ccccc6)C(C)(C)C5CCC43C)C12 (stereo unspecified) ?
inactive

***
How did this test come out for CC[C@H](C)[C@H]1O[C@]2(C=C[C@@H]1C)C[C@@H]1C[C@@H](C/C=C(\C)[C@@H](O[C@H]3C[C@H](OC)[C@@H](O[C@H]4C[C@H](OC)[C@@H](NC)[C@H](C)O4)[C@H](C)O3)[C@@H](C)/C=C/C=C3\CO[C@@H]4[C@H](O)C(C)=C[C@@H](C(=O)O1)[C@]34O)O2 ?
inactive

How did this test come out for COc1cc2c3c(n(CCNCCCNCCn4c5c(c6cc(OC)c(OC)cc6c4=O)C(=O)c4ccccc4-5)c(=O)c2cc1OC)-c1ccccc1C3=O ?
active

How did this test come out for Nc1nc(-c2cccc(Cl)c2)c(-c2ccc3ncccc3n2)s1 ?
inactive

How did this test come out for COc1cc2c3c(n(C)c(=O)c2cc1OC)-c1cc2c(cc1/C3=C\CNCCCN)OCO2 ?
active

How did this test come out for Cc1ccc2[nH]c(C(=O)NN3C(=O)C(C)SC34CCCC(C)C4)c(-c3ccccc3)c2c1 (stereo unspecified) ?
inactive

###

# Test system: K-562 leukemia
# test details: NCI tumour cell line growth inhibition, 48 h
observation type: TGI

Reference set (3 entries):
Form field: reported TGI of COc1cc2c3c(n(CCCCOC(=O)C(Cl)(Cl)Cl)c(=O)c2cc1OC)-c1cc2c(cc1C3=O)OCO2
> 100 µM

Form field: reported TGI of NC(=S)Nc1ccc(S(=O)(=O)Nc2ccc(S(N)(=O)=O)cc2)cc1
> 100 µM

Form field: reported TGI of O=C1O/C(=C(/Br)c2ccc(Cl)c(Cl)c2)c2ccccc21
> 10 µM

***
Form field: reported TGI of CSc1nc2cc(S(=O)(=O)N3CCCCC3)ccc2s1
> 100 µM

Form field: reported TGI of NCCCn1c2c(c3ccc([N+](=O)[O-])cc3c1=O)C(=O)c1cc(Br)ccc1-2
0.264 µM

Form field: reported TGI of CC[C@H](C)[C@H]1O[C@]2(C=C[C@@H]1C)C[C@@H]1C[C@@H](C/C=C(\C)[C@@H](O[C@H]3C[C@H](OC)[C@@H](O[C@H]4C[C@H](OC)[C@@H](NC)[C@H](C)O4)[C@H](C)O3)[C@@H](C)/C=C/C=C3\CO[C@@H]4[C@H](O)C(C)=C[C@@H](C(=O)O1)[C@]34O)O2
4.22 µM

Form field: reported TGI of CC1ON2CCCC2[C@H]1C(=O)N1C2CC3CCC2(CS1(=O)=O)C3(C)C (some centres undefined)
> 100 µM

Form field: reported TGI of O=C(O)Cc1cccc2c1OC(c1ccccc1)C(Cl)(C(=O)c1ccccc1)C2=O (centres undefined)
22.6 µM

Form field: reported TGI of CCc1ccc(Nc2ccc([N+](=O)[O-])cc2[N+](=O)[O-])cc1
> 100 µM
